Hi there, I'd appreciate the recorded MIC for every entry that follows.
- Test system: Klebsiella pneumoniae
- Assay Details: Antimicrobial activity against Klebsiella pneumoniae assessed as zone of inhibition >8 mm by twofold serial dilution method
- Assay type: functional
Write the number in µM without appending the unit.

Record for CC1=NN(C(=O)c2cc3ccccc3oc2=O)C(=O)C1CNc1ccc([N+](=O)[O-])cc1 (stereo unspecified) under target or system Klebsiella pneumoniae: MIC reported as 119

Record for CC1=NN(C(=O)c2cc3ccccc3oc2=O)C(=O)C1CNc1ccc(S(N)(=O)=O)cc1 (stereo unspecified) under target or system Klebsiella pneumoniae: MIC reported as 55

Record for CC1=NN(C(=O)c2cc3ccccc3oc2=O)C(=O)C1CNc1ccc(O)c(C(=O)O)c1 (stereo unspecified) under target or system Klebsiella pneumoniae: MIC reported as 115

Record for CC1=NN(C(=O)c2cc3ccccc3oc2=O)C(=O)C1CNc1ccc(Cl)cc1 (stereo unspecified) under target or system Klebsiella pneumoniae: MIC reported as 61

Record for CC1=NN(C(=O)c2cc3ccccc3oc2=O)C(=O)C1CNc1cccc(S(N)(=O)=O)c1 (stereo unspecified) under target or system Klebsiella pneumoniae: MIC reported as 55

Record for CC1=NN(C(=O)c2cc3ccccc3oc2=O)C(=O)C1CNc1ccccn1 (stereo unspecified) under target or system Klebsiella pneumoniae: MIC reported as 66.4

Record for O=C(O)c1cn(C2CC2)c2cc(N3CCNCC3)c(F)cc2c1=O [CIPROFLOXACIN] under target or system Klebsiella pneumoniae: MIC reported as 0.59

Record for CC1=NN(C(=O)c2cc3ccccc3oc2=O)C(=O)C1CNc1ccc(C(=O)O)cc1 (stereo unspecified) under target or system Klebsiella pneumoniae: MIC reported as 119

Record for CC1=NN(C(=O)c2cc3ccccc3oc2=O)C(=O)C1CNc1c(O)cc(S(=O)(=O)O)c2ccccc12 (stereo unspecified) under target or system Klebsiella pneumoniae: MIC reported as 48

Record for CC1=NN(C(=O)c2cc3ccccc3oc2=O)C(=O)C1CNc1ccc(O)cc1 (stereo unspecified) under target or system Klebsiella pneumoniae: MIC reported as 63.9

Record for COc1ccc(NCC2C(=O)N(C(=O)c3cc4ccccc4oc3=O)N=C2C)cc1 (stereo unspecified) under target or system Klebsiella pneumoniae: MIC reported as 61.7
